experiment: SK-BR-3 cell growth inhibitors, pilot screen, 24 h, human (AID 572); conditions: SK-BR-3 viability, CellTiter-Glo luminescence, at 10 µM, stronger effect = lower value;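 also: compound exposure lasted between 18 and 24 h rather than exactly 24 h; 100% = carrier-treated control wells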
reported_property: viability (%)
The reply should be a number in %, with the unit left off.

Known results for compounds:
CCOc1ccccc1NC(=O)CSc1c(C)n[nH]c1C    90
COc1ccc(-c2cc(C(=O)NCCc3ccccc3)no2)cc1OC    102
O=C(CSc1nc2ccccc2o1)Nc1ccccc1    107
COc1cccc2cc(C(=O)C3=C(O)C(=O)N(CCCN4CCOCC4)C3c3ccncc3)oc12 (centres undefined)    98
CC(=O)Nc1c2c(nn1-c1ccc(C)cc1C)CSC2    109
COC(=O)c1[nH]c2cccc(C)c2c1NC(=O)CN1CCCc2ccccc21    77.5
Cn1c(=O)cc(SCC(=O)N2CCOCC2)c2ccc(Cl)cc21    108
Cn1cc(C(=O)c2ccc(F)cc2)cc1-c1nc2ccccc2n1C    91
COC(=O)c1c(-c2ccc(F)cc2)noc1N    94
COc1ccccc1NC(=O)NC1(C(=O)N2CCC(O)CC2)CCCCC1    103

Consider the compound "CCc1ccc(NS(=O)(=O)c2cccs2)cc1" and give its measured viability.
97.5

Input O=C(NCC1COc2ccccc2O1)C1CCCN(S(=O)(=O)c2cnc[nH]2)C1 (centres undefined)
88

Input CC1=C(n2nnc3ccccc32)C(c2ccccc2)C(C#N)=C(N)O1 (centres undefined)
72

* * *

biological target: Receptor tyrosine-protein kinase erbB-2 (Homo sapiens); experiment: reducers of endogenous Her2 protein level, primary screen, SKBR3 breast tumor cells, AlphaScreen, ATP viability (AID 461); details: 18-24 h, at 10 µM, stronger effect = lower value;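 also: lower value means less Her2 protein in the cells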
Overview of recorded Her2 level for various molecules
The reply should be a number in %, with the unit left off.

COc1cccc(CN2CCN(C(=O)CC(C)C)CC2)c1    76
COc1ccc2c(c1)OC(O)(C(F)F)CC2=O (centres undefined)    107
C=CCOc1nc2c(c(=O)n(C)c(=O)n2C)n1C    100
COc1ccccc1NC(=O)N1CCCC1C(=O)NC1CCCCC1 (centres undefined)    91.5

Here is the next item to consider.
Consider the molecule [N-]=[N+]=CC(=O)CC(c1ccccc1)N1C(=O)c2ccccc2C1=O (centres undefined) and give its measured Her2 level.
106

* * *

Overview of recorded inhibition for various molecules
assay: growth suppression of yeast trafficking mutant, preliminary HTS, modulators of trafficking downstream of Golgi apparatus project, 1536-format plate, OD 615 nm (AID 637); details: yeast transport mutant growth, absorbance 615 nm, 18 h; stronger effect = higher value
The reply should be a number in %, with the unit left off.

Known results for molecules:
COc1cc2c(cc1OC)C(C)N(C(=O)c1cc3n(n1)C(C(F)(F)F)CC(c1ccco1)N3)CC2 (stereo not given)    4.26
Cc1noc(C)c1S(=O)(=O)N1CCCC(C(=O)NCCc2ccc(Cl)cc2)C1 (stereo not given)    4.76
CCCn1c(N)c(C(=O)CSc2nnc(Cc3ccccc3)o2)c(=O)n(C)c1=O    3.93
COCCN(CC(=O)NC1CCCCC1)C(=O)CSc1nc2ccccc2o1    -5.24
O=C1N(c2ccccc2)C2CS(=O)(=O)CC2N1c1ccc(Br)cc1 (stereo not given)    -0.95
COc1ccc(NC(=O)CN2CCN(CC(=O)Nc3cc(OC)cc(OC)c3)CC2)cc1    0.66
Cc1cccc(CS(=O)(=O)Cc2ccc(C(=O)NCC3CCCO3)o2)c1 (stereo not given)    -4.19
CCn1c(=O)cc(SCC(=O)NCCN2CCN(Cc3ccccc3)CC2)c2ccccc21    -3.09
CCCCCCn1c(SCCCC)nc2c1c(=O)[nH]c(=O)n2C    -5

Here is the next item to consider.
Consider the molecule "Cc1cc(NCCN2CCCCC2)n2c(nc3ccccc32)c1C#N" and give its measured inhibition.
4.1

* * *

Overview of recorded inhibition for various compounds
assay: 384-well plate pilot, post-Golgi transport modulator project, inhibition of yeast transport mutant growth (AID 636); settings: absorbance 615 nm, about 18 h, stronger effect = higher value
The reply should be a number in %, with the unit left off.

O=C(COc1ccc(Cl)cc1)Nc1nc(-c2cccs2)cs1    3.55
COc1ccccc1-n1cnc(N)c1C(C)=O    -4.21
CCc1cccc(NC(=O)C2CCCN(S(=O)(=O)c3c(C)[nH]c(=O)[nH]c3=O)C2)c1 (stereo unspecified)    -2.89
COc1cc(C2C(C#N)=C(N)OC3=C2C(=O)CC(C)(C)C3)ccc1OC(=O)N1CCOCC1 (stereo unspecified)    1.49
CCCc1nn(CCc2ccccn2)c(N)c1CC    -6

Consider the compound "CCOCCCn1c(=S)[nH]c2cc3c(cc2c1=O)OCO3" and give its measured inhibition.
-3.38

Input CC1=C(C(=O)Nc2ccccc2)C(c2cccs2)C(C#N)=C(SCC#N)N1 (stereo unspecified)
-0.4

Input COc1ccc(N2CCN(CCCNC(=O)CC3Oc4ccc(C)cc4NC3=O)CC2)cc1 (stereo unspecified)
-2.27

Input COC(=O)C1=C(C)OC(N)=C(C#N)C1c1ccccc1 (stereo unspecified)
-1.18

Input CCOP(=O)(c1ccc(N(C)C)cc1)C(O)c1ccccc1OC (stereo unspecified)
-1.07

Input "Cc1nc2c(=O)oc3ccccc3c2n1-c1ccccc1"
-6.93

* * *

experiment: SK-BR-3 cell growth inhibitors, pilot screen, 24 h, human (AID 572); details: SK-BR-3 viability, CellTiter-Glo luminescence, at 10 µM, stronger effect = lower value;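 also: compound exposure lasted between 18 and 24 h rather than exactly 24 h; 100% = carrier-treated control wells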
reported_property: viability (%)
The reply should be a number in %, with the unit left off.

COc1ccc(C(c2nnnn2C2CCCC2)N2CCN(C3CCCC3)CC2)cc1OC (stereo unspecified)    89.5
COC(=O)c1sc(N)c(C(=O)OC)c1CSc1nc2sc3c(c2c(=O)n1C)CCC3    88
COC(=O)c1cc(-c2c(C)oc3cc(O)ccc3c2=O)c(C)o1    100
Cc1ccc(S(=O)(=O)NCC2CCC(C(=O)NCCCN3CCOCC3)CC2)cc1 (stereo unspecified)    89.5
C/C(=N\O)C(=O)NCc1ccccn1    102
Cc1cc(C)c2cc3c(ccn3C3OC[C@H](O)[C@H](O)[C@H]3O)cc2n1 (stereo partly specified)    95
COCCn1c(=O)[nH]c2cc(C(=O)NCc3cccnc3)ccc2c1=O    89.5
c1ccc(CCNc2ccc3nncn3n2)cc1    82

Consider the compound "COc1cc(CNc2ccc(N3CCOCC3)c(C(=O)O)c2)ccc1OCC(N)=O" and give its measured viability.
106

Input Cc1ccccc1C1CC(c2ccccc2)Nc2ncnn21 (stereo unspecified)
90

Input O=C(NCc1ccco1)C1CC(=O)N(c2ccc(F)cc2)C1 (stereo unspecified)
96.5

* * *

assay: reversal of MRP1-mediated doxorubicin resistance, pilot screen, H69AR cells, doxorubicin co-treatment (AID 601); details: H69AR cells + 2 uM doxorubicin, CellTiter-Glo, 72 h; at 10 µM; stronger effect = higher value
Activity calls are given as the source filed them.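 How the source made its calls: active means viability loss from added drug above about 55%, and viability with drug at most 40%, in both replicates (limit read from the data, passing the limit was not always enough); inconclusive means both conditions met in only one replicate; inactive means neither replicate meets both conditions.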
Overview of recorded differential viability (reversal) for various compounds

Known results for compounds:
Cc1cc(OC(=O)N2CCOCC2)cc(C)c1Cl    19.9% (inactive)
CN(C)S(=O)(=O)N1CCN(C(=O)N(c2ccccc2)c2ccccc2)CC1    -4.56% (inactive)
O=C(Cn1c(=O)n(Cc2ccc3c(c2)OCO3)c(=O)c2ccccc21)N1CCCc2ccccc21    3.96% (inactive)

Consider the compound "CSc1nc(C)cc(OCC(=O)N2CCOCC2)n1" and give its measured differential viability (reversal).
2.54% (inactive)

Input "O=S(=O)(NCc1cn2ccsc2n1)c1ccc2c(c1)OCCO2"
9.79% (inactive)

Input "COc1ccc(-c2nc(C#N)c(N3CCOCC3)o2)cc1OC"
-0.495% (inactive)

* * *

assay: reversal of MRP1-mediated doxorubicin resistance, pilot screen, H69AR cells, doxorubicin co-treatment (AID 601); conditions: H69AR cells, CellTiter-Glo, 72 h; compound alone cytotoxicity; at 10 µM
reported_property: viability (%)
The reply should be a number in %, with the unit left off.

Known results for compounds:
COc1ccc(-c2cc(O)cc(O)c2)cc1    87.6
COC(=O)c1cc2oc(C)cc2n1CC(=O)Nc1ccc(C)c(C)c1    83.8
CCC(=O)Nc1cc(C(=O)NCC2CCCN2CC)c(OC)cc1N(C)C (stereo unspecified)    114
CCOC(=O)c1sc(N2C(=O)C(O)=C(C(=O)c3ccco3)C2c2ccccc2)nc1C (stereo unspecified)    84.2
COCCCN(C(C)=O)c1nc(-c2ccccc2)cs1    94

Consider the compound "Clc1ccc2nc(N3CCCCC3)[nH]c2c1" and give its measured viability.
91.9

* * *

Overview of recorded Her2 level for various molecules
target: Receptor tyrosine-protein kinase erbB-2 (Homo sapiens) (UniProt P04626); experiment: reducers of endogenous Her2 protein level, primary screen, SKBR3 breast tumor cells, AlphaScreen, ATP viability (AID 461); conditions: 18-24 h, at 10 µM, stronger effect = lower value;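 also: lower value means less Her2 protein in the cells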
Sequence (P04626 whole entry, looked up): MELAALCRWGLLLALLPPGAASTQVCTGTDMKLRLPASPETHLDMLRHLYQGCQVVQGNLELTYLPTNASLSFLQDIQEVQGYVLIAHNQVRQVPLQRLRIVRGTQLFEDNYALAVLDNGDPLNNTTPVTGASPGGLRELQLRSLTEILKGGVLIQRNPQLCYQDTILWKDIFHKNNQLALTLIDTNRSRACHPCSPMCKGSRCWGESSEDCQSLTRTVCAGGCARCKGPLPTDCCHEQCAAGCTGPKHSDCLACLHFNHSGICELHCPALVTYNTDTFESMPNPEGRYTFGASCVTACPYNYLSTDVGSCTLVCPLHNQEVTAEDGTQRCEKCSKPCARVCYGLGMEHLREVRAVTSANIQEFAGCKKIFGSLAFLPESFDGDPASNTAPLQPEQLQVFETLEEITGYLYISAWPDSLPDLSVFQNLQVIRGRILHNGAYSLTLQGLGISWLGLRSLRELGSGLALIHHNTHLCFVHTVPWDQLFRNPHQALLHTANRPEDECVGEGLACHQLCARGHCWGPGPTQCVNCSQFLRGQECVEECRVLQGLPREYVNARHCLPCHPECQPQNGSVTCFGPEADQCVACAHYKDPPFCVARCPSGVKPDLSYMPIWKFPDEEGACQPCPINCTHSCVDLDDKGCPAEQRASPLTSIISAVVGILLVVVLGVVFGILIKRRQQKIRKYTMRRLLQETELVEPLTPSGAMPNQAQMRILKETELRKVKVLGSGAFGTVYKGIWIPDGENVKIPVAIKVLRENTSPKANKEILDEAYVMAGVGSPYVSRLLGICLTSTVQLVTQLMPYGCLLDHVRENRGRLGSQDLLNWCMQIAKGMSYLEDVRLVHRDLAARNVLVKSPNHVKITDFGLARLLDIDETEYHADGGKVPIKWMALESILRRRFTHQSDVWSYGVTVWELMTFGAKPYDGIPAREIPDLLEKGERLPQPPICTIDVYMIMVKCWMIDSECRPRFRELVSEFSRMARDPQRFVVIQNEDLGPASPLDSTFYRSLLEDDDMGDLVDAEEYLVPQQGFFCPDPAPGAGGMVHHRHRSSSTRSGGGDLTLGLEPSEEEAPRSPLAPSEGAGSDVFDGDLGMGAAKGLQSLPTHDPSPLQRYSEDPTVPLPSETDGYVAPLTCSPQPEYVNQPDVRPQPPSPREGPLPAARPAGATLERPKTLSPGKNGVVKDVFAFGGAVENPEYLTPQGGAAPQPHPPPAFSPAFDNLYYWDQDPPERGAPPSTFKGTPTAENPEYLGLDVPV
The reply should be a number in %, with the unit left off.

Known results for molecules:
CCc1ccccc1NC(=O)CN(c1cccc(OC)c1)S(C)(=O)=O    124
O=C(Cn1cnc2ccccc2c1=O)NCCC(=O)N1CCN(Cc2ccccc2)CC1    90
CC(C)C(c1nnnn1CC1CCCO1)N1CCN(Cc2ccc3c(c2)OCO3)CC1 (stereo unspecified)    82.5

Consider the molecule "CCCCOc1ccc(-c2nnn(CC(=O)NCc3ccco3)n2)cc1" and give its measured Her2 level.
81

Input "COc1cccc(C2=Nn3c(nnc3-c3ccccc3O)SC2)c1"
61

Input "Cc1cc(NC(=O)c2cc3ccccc3o2)cc(C)c1OCC(=O)N1CCOCC1"
102

Input CN1C(=O)C2(NCCc3c2[nH]c2ccccc32)c2ccccc21 (stereo unspecified)
100

Input "CC(C)(C)NC(=O)COC(=O)c1ccc(O)cc1"
104

Cited source for all entries: PubChem BioAssay
